biological target: PTGER2 (Homo sapiens); construct: purchased Promega (in-house HiBiT-GPCR construct library, NanoBRET); test: NanoBRET screen HiBiT-PTGER2 in HEK293; format: binding; conditions: PTGER2; tracer 0.1μM
Sequence (P43116 whole entry): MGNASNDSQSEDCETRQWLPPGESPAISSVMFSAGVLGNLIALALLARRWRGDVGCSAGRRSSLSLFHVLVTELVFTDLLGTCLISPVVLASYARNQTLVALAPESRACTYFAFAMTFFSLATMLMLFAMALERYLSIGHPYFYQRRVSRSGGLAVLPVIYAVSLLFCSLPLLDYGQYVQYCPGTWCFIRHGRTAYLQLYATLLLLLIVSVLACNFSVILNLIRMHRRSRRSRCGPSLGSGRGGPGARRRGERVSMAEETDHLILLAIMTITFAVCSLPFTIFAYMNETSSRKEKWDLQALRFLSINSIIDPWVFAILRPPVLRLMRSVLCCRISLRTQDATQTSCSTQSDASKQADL
Overview of reported NanoBRET Fold Response across a group of compounds:

These solved cases illustrate the format of a correct answer.
compound | NanoBRET Fold Response
CC(C)N(CC[C@H](c1ccccc1)c1cc(CCNC(=O)c2ccc(CNC(=O)CCc3ccc4n3[B-](F)(F)[N+]3=C(c5ccc[nH]5)C=CC3=C4)cc2)ccc1O)C(C)C | 1.04
COc1ccccc1N1CCN(CCCCN2C(=O)c3ccc(CNC(=O)CCOCCNC(=O)c4ccc(CNC(=O)CCc5ccc6n5[B-](F)(F)[N+]5=C(c7ccc[nH]7)C=CC5=C6)cc4)cc3C2=O)CC1 | 1.06
N#CN=C(NCCCOc1cccc(CN2CCCCC2)c1)NCCNC(=O)CCOCCOCCOCCOCCNC(=O)CCc1ccc2n1[B-](F)(F)[N+]1=C(c3ccc[nH]3)C=CC1=C2 | 0.99
O=C(CCc1ccc2n1[B-](F)(F)[N+]1=C(c3ccc[nH]3)C=CC1=C2)NCCOCCOCCNC(=O)OCCOCCN1CCN(C2=Nc3ccccc3Sc3ccccc32)CC1 | 0.96

Respond only with NanoBRET Fold Response recorded for CCCn1c(=O)c2[nH]c(-c3ccc(OCC(=O)NCCNC(=O)CCOCCNC(=O)c4ccc(CNC(=O)CCc5ccc6n5[B-](F)(F)[N+]5=C(c7ccc[nH]7)C=CC5=C6)cc4)cc3)nc2n(CCC)c1=O
1.04

Given the compound Cc1cc2c(s1)Nc1ccccc1N=C2N1CCN(CCCNC(=O)CCOCCOCCOCCOCCNC(=O)CCc2ccc3n2[B-](F)(F)[N+]2=C(c4ccc[nH]4)C=CC2=C3)CC1 , write its reported NanoBRET Fold Response.
1.03

Dear colleague, please send me the reported NanoBRET Fold Response for O=C(CCOCCOCCOCCOCCNC(=O)CCc1ccc2n1[B-](F)(F)[N+]1=C(c3ccc[nH]3)C=CC1=C2)NCCCN1CCN(C2=Nc3ccccc3Oc3ccc(Cl)cc32)CC1 when you can.
1.03

Provide NanoBRET Fold Response value for the following compound: COc1ccccc1N1CCN(CCCCN2C(=O)c3ccc(CNC(=O)CCOCCOCCOCCOCCNC(=O)CCc4ccc5n4[B-](F)(F)[N+]4=C(c6ccc[nH]6)C=CC4=C5)cc3C2=O)CC1
1.02

# credit: paper PMC8151276
